Hi! I'm sharing some IC50 results obtained with Mitogen-activated protein kinase 8 (Homo sapiens, UniProt P45983).
Sequence (P45983 whole entry): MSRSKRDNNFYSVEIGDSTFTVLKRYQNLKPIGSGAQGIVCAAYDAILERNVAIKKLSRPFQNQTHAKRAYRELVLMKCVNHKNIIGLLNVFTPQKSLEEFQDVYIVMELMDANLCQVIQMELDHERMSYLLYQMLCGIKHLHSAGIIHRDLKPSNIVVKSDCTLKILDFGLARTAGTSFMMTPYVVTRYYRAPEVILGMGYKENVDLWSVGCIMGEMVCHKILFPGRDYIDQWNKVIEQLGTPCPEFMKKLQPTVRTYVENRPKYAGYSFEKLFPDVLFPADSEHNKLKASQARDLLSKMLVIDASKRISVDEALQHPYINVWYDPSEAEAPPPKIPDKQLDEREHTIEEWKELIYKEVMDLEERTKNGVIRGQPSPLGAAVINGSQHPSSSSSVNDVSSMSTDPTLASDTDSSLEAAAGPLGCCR

mol	tested.on	IC50
COc1ccc(C(=O)N2CCN(C(=O)c3ccc(CNc4n[nH]c5ccccc45)cc3)CC2)c(Cl)c1	Mitogen-activated protein kinase 8 (Homo sapiens, UniProt P45983)	> 10 µM
O=C(NCCc1ccccc1)c1ccc(CNc2n[nH]c3ccccc23)cc1	Mitogen-activated protein kinase 8 (Homo sapiens, UniProt P45983)	> 10 µM
Cc1cccc2c(NCc3cccc(C(=O)N4CCN(C(=O)c5ccc(Cl)cc5Cl)CC4)c3)n[nH]c12	Mitogen-activated protein kinase 8 (Homo sapiens, UniProt P45983)	> 10 µM

---

Observed IC50 for Mitogen-activated protein kinase 10 (Homo sapiens, UniProt P53779), reported per entry below.
value.kind: IC50

mol	value.kind	result
Cc1cccc2c(NCc3cccc(C(=O)N4CCN(C(=O)c5ccc(Cl)cc5Cl)CC4)c3)n[nH]c12	IC50	> 10 µM
COc1ccc(NC(=O)c2ccc(CNc3n[nH]c4ccccc34)cc2)cc1	IC50	> 10 µM
Cc1cc(NC(=O)c2ccc(CNc3n[nH]c4ccccc34)cc2)ccc1Cl	IC50	> 10 µM
